test system: HOP-62; assay: NCI tumour cell line growth inhibition, 48 h
Calls of active or inactive are those of the source. Cut-off read from the data, not from the text of the source: active = GI50 up to about 1.1 µM and inactive = higher.
Outcome codes: TRUE = active, FALSE = inactive

[
  {
    "compound": "COc1ccc2c(c1OC)OC[C@@H](C1=CC(=O)C=C(O)C1=O)C2",
    "category.label": "FALSE"
  },
  {
    "compound": "CCOC(=O)CC1=CSC2=NCCN12",
    "category.label": "FALSE"
  },
  {
    "compound": "CC1(C)[C@@H](Cn2cnc3c(Cl)nc(N)nc32)CC[C@@]1(C)CO",
    "category.label": "FALSE"
  },
  {
    "compound": "O=C[C@@H](CO)O[C@H](C=O)n1cnc2c(=O)nc[nH]c21",
    "category.label": "FALSE"
  },
  {
    "compound": "CCCC(=O)OCC1OC(n2cc(F)c(=O)[nH]c2=O)CC1O (configuration not stated)",
    "category.label": "TRUE"
  },
  {
    "compound": "CC1=C(C(=O)Nc2cccc3c2C(=O)NC3=O)CC(C(=O)Nc2cccc3c2C(=O)NC3=O)=C(C)N1",
    "category.label": "FALSE"
  },
  {
    "compound": "Nc1nc(Cl)cc(NCC2(CO)CCC(CCc3ccccc3)C2)n1 (configuration not stated)",
    "category.label": "TRUE"
  },
  {
    "compound": "O=c1c2c3ccccc3[nH]c2c2cccc3c2n1CCC3",
    "category.label": "FALSE"
  },
  {
    "compound": "Cc1cc(S(=O)(=O)/N=C(\\NN)NCC(=O)NN)c(S)cc1Cl",
    "category.label": "FALSE"
  },
  {
    "compound": "CN(C)CC(C)(C)CN1c2ccccc2Sc2ccccc21",
    "category.label": "FALSE"
  },
  {
    "compound": "COc1cc(OC)c2c(c1)OC(c1cccnc1)C(c1ccccc1)C2=O (configuration not stated)",
    "category.label": "FALSE"
  },
  {
    "compound": "O=C1c2ccccc2C(=O)N1Cc1ccccc1-c1c2nc(c(-c3ccccc3CN3C(=O)c4ccccc4C3=O)c3ccc([nH]3)c(-c3ccccc3CN3C(=O)c4ccccc4C3=O)c3nc(c(-c4ccccc4CN4C(=O)c5ccccc5C4=O)c4ccc1[nH]4)C=C3)C=C2",
    "category.label": "FALSE"
  }
]

---

system: A498; experiment: NCI tumour cell line growth inhibition, 48 h
Activity calls are given as the source filed them. Cut-off read from the data, not from the text of the source: active = GI50 up to about 1.1 µM and inactive = higher.
Attribute: GI50

[
  {
    "compound": "C=CCNC(=O)CN(CC(=O)O)C1CCCCC1N(CC(=O)O)CC(=O)O (stereo not drawn)",
    "GI50": "> 100 µM (inactive)"
  },
  {
    "compound": "CC1=C(C(=O)Nc2cccc3c2C(=O)NC3=O)CC(C(=O)Nc2cccc3c2C(=O)NC3=O)=C(C)N1",
    "GI50": "> 100 µM (inactive)"
  },
  {
    "compound": "Cc1cccc(/C=N/NC(=S)Nc2ccccc2)n1",
    "GI50": "15.3 µM (inactive)"
  },
  {
    "compound": "NC(=O)C(=O)N/N=C1\\C(=O)N(c2ccc(Cl)cc2Cl)C(=O)C1C(=O)Nc1ccc(Cl)cc1Cl (stereo not drawn)",
    "GI50": "> 100 µM (inactive)"
  },
  {
    "compound": "COC(=O)c1cc(C)ccc1C1CN=NC12Cc1ccc(C)cc1C2=O (stereo not drawn)",
    "GI50": "29.5 µM (inactive)"
  },
  {
    "compound": "COc1cc(C(=O)C/C(CCC(=O)Nc2ccc(Cl)cc2Cl)=N/NC(=O)C(N)=O)ccc1O",
    "GI50": "> 100 µM (inactive)"
  },
  {
    "compound": "Cc1ccc(C2SCc3nc4ccccc4n32)cc1 (stereo not drawn)",
    "GI50": "3.15 µM (inactive)"
  },
  {
    "compound": "CN1C/C(=C\\c2ccccc2)C2=NN(C(N)=S)[C@H](c3ccccc3)[C@@H]2C1",
    "GI50": "> 100 µM (inactive)"
  }
]

---

system: SNB-78; test: NCI tumour cell line growth inhibition, 48 h
Calls of active or inactive are those of the source. Rule as the data show it: active = GI50 up to about 1.1 µM and inactive = higher.
Outcome codes: t = active, f = inactive

[
  {
    "molecule": "COC(c1ccccc1)C(c1ccccc1)N1CCOCC1 (stereo unspecified)",
    "category.label": "f"
  },
  {
    "molecule": "O=C1c2ccccc2C(=O)N1Cc1ccccc1-c1c2nc(c(-c3ccccc3CN3C(=O)c4ccccc4C3=O)c3ccc([nH]3)c(-c3ccccc3CN3C(=O)c4ccccc4C3=O)c3nc(c(-c4ccccc4CN4C(=O)c5ccccc5C4=O)c4ccc1[nH]4)C=C3)C=C2",
    "category.label": "f"
  },
  {
    "molecule": "Cc1ccccc1NC(=O)C(=O)CC(=O)c1ccc([N+](=O)[O-])cc1",
    "category.label": "f"
  },
  {
    "molecule": "NCCNc1ccc(NCCN)c2c1C(=O)c1c(O)ccc(O)c1C2=O",
    "category.label": "t"
  },
  {
    "molecule": "CCOc1ccc(/C(Cl)=C(\\C=O)c2ccc(OC)c(OC)c2)cc1OCC",
    "category.label": "f"
  },
  {
    "molecule": "C[N+](C)(C)CC(=O)N/N=C(\\CCC(=O)NCCc1ccccc1)CC(=O)c1ccccc1",
    "category.label": "f"
  },
  {
    "molecule": "Cc1ccc(NC(=O)NC23CC4CC(CC(F)(C4)C2)C3)cc1",
    "category.label": "f"
  },
  {
    "molecule": "O=C1Nc2ccccc2N=CC1NC(=O)C(c1ccccc1)c1ccccc1 (stereo unspecified)",
    "category.label": "f"
  },
  {
    "molecule": "CCOC(=O)CC1=CSC2=NCCN12",
    "category.label": "f"
  },
  {
    "molecule": "COc1cc(CCc2cccnc2)cc(OC)c1OC",
    "category.label": "f"
  },
  {
    "molecule": "COc1cccc(N[C@@H]2c3cc4c(cc3C(c3cc(OC)c(O)c(OC)c3)[C@H]3C(=O)OCC32)OCO4)c1 (stereo partly specified)",
    "category.label": "f"
  }
]

---

system: KM12; assay: NCI tumour cell line growth inhibition, 48 h
Active and inactive are the calls of the source. No stated cut-off is given here; in the data, active = GI50 up to about 1.1 µM and inactive = higher.
Attribute: GI50

[
  {
    "compound": "O=C1NC(=O)C(CC(C(=O)C(=O)Nc2ccccc2Cl)C(=O)c2ccc3ccccc3c2)C(=O)N1 (centres undefined)",
    "GI50": "> 100 µM (inactive)"
  },
  {
    "compound": "O=[N+]([O-])c1c2nc3n(c2cc2c1nc1n2CCC1)CCC3",
    "GI50": "> 100 µM (inactive)"
  },
  {
    "compound": "c1csc(-c2nccc3c2[nH]c2ccccc23)c1",
    "GI50": "19.5 µM (inactive)"
  },
  {
    "compound": "CCOC(=O)CC1=CSC2=NCCN12",
    "GI50": "> 100 µM (inactive)"
  },
  {
    "compound": "N#CC1(C=O)c2ccccc2C=CN1C(=O)c1ccccc1 (centres undefined)",
    "GI50": "19.2 µM (inactive)"
  },
  {
    "compound": "CCOc1ccc(/C(Cl)=C(\\C=O)c2ccc(OC)c(OC)c2)cc1OCC",
    "GI50": "91.4 µM (inactive)"
  },
  {
    "compound": "CCNC(=O)COc1ccc(Cl)cc1Cl",
    "GI50": "> 100 µM (inactive)"
  },
  {
    "compound": "N#CC1=C(N)OC2=C(CSc3ccccc32)C1c1ccc(Br)cc1 (centres undefined)",
    "GI50": "4.37 µM (inactive)"
  },
  {
    "compound": "c1ccc2c(c1)nc1ccccn12",
    "GI50": "> 100 µM (inactive)"
  }
]

---

test system: MDA-MB-231; test: NCI tumour cell line growth inhibition, 48 h
Calls of active or inactive are those of the source. No stated cut-off is given here; in the data, active = GI50 up to about 1.1 µM and inactive = higher.
measure: GI50

[
  {
    "compound": "COC(=O)c1cc(C)ccc1C1CN=NC12Cc1ccc(C)cc1C2=O (stereo unspecified)",
    "tgt": "MDA-MB-231",
    "experimental.value": "63.8 µM (inactive)"
  },
  {
    "compound": "COc1cc(OCc2ccc3nc(-c4ccccc4)c(N)nc3c2)cc(OC)c1OC",
    "tgt": "MDA-MB-231",
    "experimental.value": "25.5 µM (inactive)"
  },
  {
    "compound": "COC(=O)[C@@H]1C[C@@H](O)CN1C(=O)c1ccc([N+](=O)[O-])cc1[N+](=O)[O-]",
    "tgt": "MDA-MB-231",
    "experimental.value": "> 100 µM (inactive)"
  },
  {
    "compound": "COc1cc(/C=C2\\C[C@H]3[C@@H]4CCc5cc(OCCN6CCCC6)ccc5[C@H]4CC[C@]3(C)C2=O)cc(OC)c1OC",
    "tgt": "MDA-MB-231",
    "experimental.value": "1.79 µM (inactive)"
  },
  {
    "compound": "C=CCc1[nH]c2c(OCc3ccccc3)cc(N(CC=C)C(C)=O)cc2c1C",
    "tgt": "MDA-MB-231",
    "experimental.value": "10.7 µM (inactive)"
  },
  {
    "compound": "O=C(CCSC(CC(=O)c1ccc(Cl)cc1)c1ccc(Cl)cc1)Nc1ccc(Cl)cc1 (stereo unspecified)",
    "tgt": "MDA-MB-231",
    "experimental.value": "15.2 µM (inactive)"
  }
]
